- target-or-test-system: T1, human GPC3 on cells (human, UniProt P51654 25-554)
- T1 construct: whole, on cells; over-expressed on CHOK1 cells or endogenous on HEPG2, Hep3B and Huh-7 hepatocellular carcinoma cells; the cell line is named under assay; also called GPC3-CHOK1 cells; human GPC3 over-expressed CHOK1 cells
- experiment-description: FACS, GPC3-CHOK1 cells
measured-metric: EC50 (µg/mL)
Express the result in µg/mL but write the number alone.

>  <binder>
52H5D3B8-6#-VH1+VL3 (antibody, V domains shown, humanized) VH: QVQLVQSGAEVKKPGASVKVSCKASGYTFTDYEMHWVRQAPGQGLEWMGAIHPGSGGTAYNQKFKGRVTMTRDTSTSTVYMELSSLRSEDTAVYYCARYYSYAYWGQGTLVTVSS VL: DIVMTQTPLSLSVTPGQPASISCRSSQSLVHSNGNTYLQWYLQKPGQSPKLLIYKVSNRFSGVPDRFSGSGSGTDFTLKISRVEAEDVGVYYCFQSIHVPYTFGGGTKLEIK

>  <EC50 (µg/mL)>
0.0341

$$$$
>  <binder>
52H5D3B8-6#-VH3+VL2 (antibody, V domains shown, humanized) VH: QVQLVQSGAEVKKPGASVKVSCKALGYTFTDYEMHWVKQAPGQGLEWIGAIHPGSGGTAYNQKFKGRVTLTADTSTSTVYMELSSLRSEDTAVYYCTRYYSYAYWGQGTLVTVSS VL: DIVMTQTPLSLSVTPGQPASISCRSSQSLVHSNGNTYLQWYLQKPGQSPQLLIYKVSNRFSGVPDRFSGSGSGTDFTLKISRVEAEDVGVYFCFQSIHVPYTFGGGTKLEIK

>  <EC50 (µg/mL)>
0.0429

$$$$

Supply reported EC50 belonging to this binder: 52H5D3B8-6# chimeric mAb (antibody, V domains shown, CDR3 mutant of the 52H5D3B8 chimeric mAb (human IgG1); also called 52H5D3B8-6#-VH+VL) VH: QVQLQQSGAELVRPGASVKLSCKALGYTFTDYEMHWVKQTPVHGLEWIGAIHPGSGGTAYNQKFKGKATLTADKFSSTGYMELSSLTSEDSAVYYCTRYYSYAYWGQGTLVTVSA VL: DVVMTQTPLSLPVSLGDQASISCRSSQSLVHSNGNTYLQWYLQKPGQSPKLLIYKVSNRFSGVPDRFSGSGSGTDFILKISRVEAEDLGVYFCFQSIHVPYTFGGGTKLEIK
0.035
